Measured values drawn from FireProtDB (doi:10.1021/bi00025a018) for this set.

B1: Ribonuclease HI, P0A7Y4 (parent)
chain: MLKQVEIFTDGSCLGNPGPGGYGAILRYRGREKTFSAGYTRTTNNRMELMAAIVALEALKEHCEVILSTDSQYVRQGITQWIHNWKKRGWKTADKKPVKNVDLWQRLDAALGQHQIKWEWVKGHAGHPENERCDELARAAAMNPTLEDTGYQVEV

variants of: B1; settings: Escherichia coli (strain K12); pH 5.5; Thermal; CD; Sodium acetate 10 mM; NaCl 0.1 M; reversible: yes; structure 2RN2; whole UniProt chain shown
Assay Endpoint: change of melting temperature, mutant - wild type (higher = more stable) (°C)
Numbers only here, please. The scale is °C.

Worked cases, answers included:
D134H ... 7
G23A ... 1.8
V74L ... 3.3

(Q) Reported change of melting temperature, mutant - wild type (higher = more stable) for "H62P" : what is it?
(A) 4.1
